method-notes: CCTE_Shafer_MEA_acute_cross_correlation_area: CCTE's Neural Acute Assay for Area of Cross Correlation, Shafer Lab (AID 2284024);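 further: area under pooled inter-electrode spike cross-correlation near zero lag as percent change from own baseline; curves fitted for loss of cross-correlation area so actives lower synchrony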;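 on outcome: rat primary cortical neuron networks on 48-well MEA at DIV 13 or 15 with 40 min exposure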
Description: CCTE_Shafer_MEA_acute assay is conducted using Axion Biosystems 48 well microelectrode array (MEA) plates and Maestro recording system. Each well of the MEA plate contains a grid of 16 microelectrodes embedded in the culture surface. Electrically active cells, such as neurons, can be cultured over the electrodes, and electrical activity in these cells can be recorded extracellularly. […]
Active and inactive are the calls of the source. How the source made its calls: active means hit-call score of the fitted dose curve at least 0.9, where 1 is the maximum; inactive means score below 0.9.
Choose the fitting class; nothing outside active, inactive is accepted.

Recorded test outcome, item CCSC(=O)N(CC)C1CCCCC1
inactive

// return assay outcome for ClC1=C(Cl)[C@]2(Cl)[C@@H]3[C@H]4C[C@H]([C@@H]5O[C@H]45)[C@@H]3[C@@]1(Cl)C2(Cl)Cl
active

Tell me the recorded outcome of this test for CC(c1ccc(O)cc1)(c1ccc(O)cc1)c1ccc(O)cc1 .
inactive

Identify the outcome logged in this assay for the compound shown: COS(=O)(=O)OC
inactive

GET /call?item= O=C(N[C@H]1CN2CCC1CC2)c1cc2ccoc2cn1 returns the recorded outcome of this test.
inactive

What did this assay record as the result for Clc1ccc(C(Cl)(Cl)Cl)cc1 ?
inactive

GET /call?item= CCC(C)(CC)c1cc(NC(=O)c2c(OC)cccc2OC)on1 returns the recorded outcome of this test.
inactive

What call does the record list for c1ccc(-c2ccccc2)cc1 ?
inactive

Please state the recorded outcome for this compound: O=C(NC(=O)c1c(F)cccc1F)Nc1cc(Cl)c(OC(F)(F)C(F)F)c(Cl)c1
inactive

Test call, this compound: ClC1=C(Cl)[C@]2(Cl)[C@@H]3[C@@H]4C[C@@H]([C@H]5O[C@@H]45)[C@@H]3[C@@]1(Cl)C2(Cl)Cl
active

Please let me know the test result on file for Nc1ccc(-c2ccc(N)cc2)cc1 .
inactive

What classification did CCCN(CCC)N=O end up with in this test?
inactive

Which outcome was entered for the compound CO/C=C(/C(=O)OC)c1ccccc1COc1cccc(C(F)(F)F)n1 in this test?
active

Look up the recorded call for ClC1=C(Cl)[C@]2(Cl)[C@@H]3[C@@H](Cl)[C@H]4O[C@H]4[C@@H]3C1(Cl)C2(Cl)Cl in this test.
active

Which result was noted for this compound in the test: CCCCCCCCCC[N+](C)(C)CCCCCCCCCC
inactive

---

Read-out: Urokinase-type plasminogen activator receptor (uPAR), PLAUR (gene 5329)
method-notes: BSK_CASM3C_uPAR: BioMAP Diversity Plus: CASM3C Assay for Urokinase-type plasminogen activator receptor (uPAR) Biomarker Activity (AID 2283054);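 further: cell-surface uPAR protein level quantified by ELISA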
test-settings: primary human coronary artery smooth muscle cells; actives raise or lower the signal
Activity calls are given as the source filed them. How the source made its calls: active means hit-call score of the fitted dose curve at least 0.9, where 1 is the maximum; inactive means score below 0.9.
Your answer must be one of the following: active, inactive

Which outcome was assigned to CCNc1nc(NC(C)C)nc(SC)n1 in this test?
inactive

How was O=C(O)C(F)(F)C(F)(F)C(F)(F)C(F)(F)C(F)(F)F classified in this test?
inactive

Which result was noted for this molecule in the test: Cc1cc2c3c(c1)C(c1ccccc1)=N[C@@H](NC(=O)c1ccncc1)C(=O)N3CC2
inactive

What outcome does the record of this test show for COS(=O)(=O)OC ?
inactive

# lookup: test call for CCCCCCCCCC[N+](C)(C)CCCCCCCCCC
active

I'd appreciate the recorded outcome for O=C(O)C(F)(F)C(F)(F)C(F)(F)C(F)(F)C(F)(F)C(F)(F)C(F)(F)C(F)(F)F from this test.
inactive

Look up the recorded call for C=CC(N)=O in this test.
inactive
